- Subject Of Test: UniProt P35414
- Sequence (P35414 whole entry): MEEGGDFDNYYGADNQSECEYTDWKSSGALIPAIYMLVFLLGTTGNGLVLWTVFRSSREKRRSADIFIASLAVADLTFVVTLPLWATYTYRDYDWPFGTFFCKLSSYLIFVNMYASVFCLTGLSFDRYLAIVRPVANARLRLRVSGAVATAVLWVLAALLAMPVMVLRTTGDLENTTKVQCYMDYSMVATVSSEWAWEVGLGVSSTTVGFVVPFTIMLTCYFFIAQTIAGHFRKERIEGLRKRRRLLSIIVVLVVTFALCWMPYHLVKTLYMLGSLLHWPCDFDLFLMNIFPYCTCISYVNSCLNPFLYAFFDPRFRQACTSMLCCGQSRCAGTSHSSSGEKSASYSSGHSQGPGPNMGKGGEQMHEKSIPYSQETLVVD
- Protocol: GTPγS Binding: The human APJ receptor was cloned by polymerase chain reaction and the gene encoding the receptor was subcloned in pFLAG-CMV-3 expression vector (Sigma, Saint Louis, Mo. USA) in-house at Amgen. A GTPγS binding assay was performed on membranes prepared from CHO cells stably expressing human APJ receptor. The optimum experimental conditions for the concentrations of GDP, MgCl2, and NaCl in the assay buffer were initially determined. The assay was performed in assay buffer [20 mM HEPES, pH 7.5, 5 mM MgCl2, and 0.1% (w/v) BSA with 200 mM NaCl, 3 μM GDP] and membranes expressing human APJ receptor/well along with WGA PS beads. The reaction was initiated by addition of 0.2 nM [35S]GTPγS in the absence or presence of various ligands and incubated at RT for 90 min. Nonspecific binding was determined in the presence of 100 μM GTPγS and was always less than 0.2% of total binding.
Measurement Name: EC50
// return the numeric value with its unit appended

Q: Request the reported EC50 associated with COc1cccc(OC)c1-n1c(NS(=O)(=O)[C@H](C)[C@@H](O)c2cnc(C)cn2)nnc1-c1ccc(C)o1 (single isomer, unassigned)
A: 1.5 nM

Q: State the recorded EC50 for this entry: COc1cccc(OC)c1-n1c(NS(=O)(=O)CCN2C(=O)N(C)CC[C@H]2C)nnc1-c1ccco1 (single isomer, unassigned)
A: 0.7 nM

Q: If you can, please state the reported EC50 value of COc1cccc(OC)c1-n1c(NS(=O)(=O)[C@@H]2C[C@H](c3ccc(F)cc3)CN(C(C)=O)C2)nnc1-c1ccc(C)o1 (single isomer, unassigned) .
A: 1.1 nM

Q: // query EC50 value for entry COc1cccc(OC)c1-n1c(NS(=O)(=O)[C@@H](C)Cc2ncc(F)cc2N2C[C@H](O)CC2=O)nnc1-c1ccco1 (mixture of isomers)
A: 0.61 nM
